Just for reference, PubChem BioAssay (NCATS) is where these values come from.

system name: Rap guanine nucleotide exchange factor 4 (Homo sapiens)
method notes: Confirmatory qHTS for agonist of cAMP-regulated guanine nucleotide exchange factor 4 (EPAC2) (AID 1645884);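 note: nucleotide exchange releases bodipy-GDP from Rap1 and this lowers its fluorescence; % is set by controls: 0 for no effect and ±100 for the full control effect; nearly all actives have a fitted effect of over 65% in size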
run parameters: EPAC2 GEF activity, Rap1B-BODIPY-GDP fluorescence; series mostly up to 154 µM
Results filed as inconclusive are left out. Calls of active or inactive are those of the source. Calls come from the whole dose curve; as a rule, active = well fitted activation curve with a large enough effect; inconclusive = small, poorly fitted or top-dose-only effect; inactive = no such curve, though single readings can be large or run the other way.

molecule	activation
CCc1ccc(N(C(=O)c2csnn2)C(C(=O)NCc2ccccc2)c2ccco2)cc1 (stereo not given)	inactive
COc1ccc(C2C=C(c3ccc(Br)cc3)Nc3nnnn32)c(OC)c1 (stereo not given)	inactive
Cc1ccc(C(=O)N(Cc2ccco2)Cc2sccc2C)cc1	inactive
CCOC(=O)c1ccc(-n2c(N)c(C(=O)OC)c3nc4ccccc4nc32)cc1	inactive
Cc1ccc(SCc2cc(=O)c3c(=O)n(-c4ccccc4)[nH]c3[nH]2)cc1	inactive
COc1ccc(N(CC(=O)NC2CCCCCCC2)S(=O)(=O)c2c(C)nn(C)c2C)cc1	inactive
COc1ccc(C2OCC3(COC(C)=O)C(C)C=C(C)C2C3C)cc1 (stereo not given)	inactive
CCOc1ccc(NC(=O)c2ccc(NC(=O)COC(=O)c3ccc(NC(=O)CC#N)cc3)cc2)cc1	inactive

====

method notes: qHTS for differential inhibitors of proliferation of Plasmodium falciparum line GB4 (AID 1816);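 note: parasite growth measured after 72 h incubation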
run parameters: Plasmodium falciparum GB4 proliferation inhibition; series mostly up to 28.7 µM
Inconclusive results are not listed. Activity calls are given as the source filed them. Calls follow the shape of the dose curve; as a rule, active = well fitted curve in the direction sought with a large enough effect; inconclusive = small, poorly fitted or top-dose-only effect, or another doubt; inactive = no such curve, though single readings can be large or run the other way.
Possible outcomes: active, inactive

compound	group label
CC(=O)O[C@]1(C(C)=O)CC[C@H]2C3C=C(Cl)C4=CC(=O)[C@@H]5C[C@H]5[C@]4(C)C3CC[C@@]21C (stereo partly specified)	active
CC(=O)SC1CC2=CC(=O)CC[C@]2(C)C2CC[C@@]3(C)[C@@H](CC[C@@]34CCC(=O)O4)C12 (stereo partly specified)	active
CN1CCN(CC/C=C2/c3ccccc3Sc3ccc(S(=O)(=O)N(C)C)cc32)CC1	active
N#Cc1c(-c2ccccc2)no[n+]1[O-]	active
CC(C)C[C@H](N)CSSC[C@@H](N)CC(C)C	active
CC[C@H](C)C(=O)O[C@H]1CCC=C2C=C[C@H](C)[C@H](CC[C@@H]3C[C@H](O)CC(=O)O3)C21 (stereo partly specified)	inactive

====

system name: Guanidinoacetate N-methyltransferase (Homo sapiens) (UniProt Q14353)
method notes: Confirmatory Screen for Target Class Profiling of Small Molecule Inhibitors of Methyltransferases (AID 1745852); note: % is set by controls: 0 for no effect and ±100 for the full control effect
run parameters: MTase-Glo luminescence, SAH detection, recombinant enzyme; at 57.3 µM (top of the series) unless noted
# key: entry, value: activity change, negative = inhibition
readout type: activity change, negative = inhibition

compound	system name	result
O=C(CCc1nnc2n(Cc3ccc(F)cc3)c(=O)c3ccccc3n12)N1CCC(N2CCCCC2)CC1	Guanidinoacetate N-methyltransferase (Homo sapiens) (UniProt Q14353)	0%
CC1CCCC(NC(=O)C2(C)Cn3c(cc4occc43)C(=O)N2Cc2ccco2)C1C (stereo not given)	Guanidinoacetate N-methyltransferase (Homo sapiens) (UniProt Q14353)	-6.55%
O=[S+]1([O-])NC2(CCCN(Cc3c(F)cccc3Cl)C2)COc2ccccc21 (stereo not given)	Guanidinoacetate N-methyltransferase (Homo sapiens) (UniProt Q14353)	2.18%
COc1ccc(CC(=O)Nc2ccc3ncnc(N4CCCC4)c3c2)c(Cl)c1	Guanidinoacetate N-methyltransferase (Homo sapiens) (UniProt Q14353)	-0.581%
CC(C)c1nccn1CCCNc1nc(-c2ccncc2)nc2c1cnn2C	Guanidinoacetate N-methyltransferase (Homo sapiens) (UniProt Q14353)	-15.2%
CC(C)Cn1c(=O)c2ccccc2n2c(CCC(=O)Nc3ccc(F)c(F)c3)nnc12	Guanidinoacetate N-methyltransferase (Homo sapiens) (UniProt Q14353)	1.46%
Cc1ccc(NS(=O)(=O)c2ccc3c(c2)[C@H]2C=CC[C@H]2[C@@H](c2cccc(Cl)c2)N3)c(C)c1	Guanidinoacetate N-methyltransferase (Homo sapiens) (UniProt Q14353)	-14.3%
CC(C)CCn1c(=O)c2ccccc2n2c(CCC(=O)N3CCN(Cc4ccccc4)CC3)nnc12	Guanidinoacetate N-methyltransferase (Homo sapiens) (UniProt Q14353)	0%
COc1ccc(CN2C[C@@H](CO)[C@H](c3ccncc3)C2)c(OC)c1	Guanidinoacetate N-methyltransferase (Homo sapiens) (UniProt Q14353)	7.27%
CC1CCCCN1CCCNC(=O)c1cc2c(s1)CN(C1CCCC1)C2 (stereo not given)	Guanidinoacetate N-methyltransferase (Homo sapiens) (UniProt Q14353)	2.38%

====

system name: Rap guanine nucleotide exchange factor 3 (Homo sapiens) (UniProt O95398)
Sequence (O95398 whole entry, looked up): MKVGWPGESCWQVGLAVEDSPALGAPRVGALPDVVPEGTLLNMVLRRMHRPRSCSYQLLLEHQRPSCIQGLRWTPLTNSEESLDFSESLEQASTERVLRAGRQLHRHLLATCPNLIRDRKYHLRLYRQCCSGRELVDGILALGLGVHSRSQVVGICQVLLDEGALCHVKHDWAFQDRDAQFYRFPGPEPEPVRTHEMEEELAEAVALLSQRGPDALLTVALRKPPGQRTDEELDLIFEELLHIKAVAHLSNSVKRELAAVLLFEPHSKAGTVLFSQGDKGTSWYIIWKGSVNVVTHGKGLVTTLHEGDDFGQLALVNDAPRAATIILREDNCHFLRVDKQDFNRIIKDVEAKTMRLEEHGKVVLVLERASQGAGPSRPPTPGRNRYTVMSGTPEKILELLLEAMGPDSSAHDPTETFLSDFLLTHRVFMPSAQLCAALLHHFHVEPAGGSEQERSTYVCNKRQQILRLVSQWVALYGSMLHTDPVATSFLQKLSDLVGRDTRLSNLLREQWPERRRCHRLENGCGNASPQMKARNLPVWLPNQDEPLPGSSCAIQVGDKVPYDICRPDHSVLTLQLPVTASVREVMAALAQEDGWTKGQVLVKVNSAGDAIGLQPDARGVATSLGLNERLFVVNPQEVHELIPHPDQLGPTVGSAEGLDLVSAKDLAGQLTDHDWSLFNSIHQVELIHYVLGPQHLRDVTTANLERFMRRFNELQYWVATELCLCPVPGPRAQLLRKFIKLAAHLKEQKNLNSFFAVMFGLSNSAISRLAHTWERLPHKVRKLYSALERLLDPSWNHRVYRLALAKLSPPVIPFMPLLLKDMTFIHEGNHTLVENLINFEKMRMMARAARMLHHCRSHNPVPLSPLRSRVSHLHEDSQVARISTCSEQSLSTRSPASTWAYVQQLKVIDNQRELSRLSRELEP
method notes: Counterscreen qHTS for agonist of cAMP-regulated guanine nucleotide exchange factor 3 (EPAC1) (AID 1645889); note: % of control where 0% means no effect; nearly all actives have a fitted effect of over 40% in size
run parameters: EPAC1 Rap1B-BODIPY-GDP exchange, fluorescence; series mostly up to 154 µM
Results filed as inconclusive are left out. Calls of active or inactive are those of the source. Calls come from the whole dose curve; as a rule, active = well fitted activation curve with a large enough effect; inconclusive = small, poorly fitted or top-dose-only effect, or another doubt; inactive = no such curve, though single readings can be large or run the other way.

molecule	activation
O=C1NC(=S)S/C1=C\c1ccc(SCc2ccccc2)o1	inactive
O=C(NCCS(=O)(=O)N1CCc2ccccc2C1)c1ccccc1	inactive
Cn1c(N)c(C(=O)CSc2nnc(-c3c[nH]c4ccccc34)n2C2CC2)c(=O)[nH]c1=O	17.7% [at 30.8 µM] (inactive)
CN(CC(=O)Nc1ccc(F)cc1)C(=O)COc1ccc(C(=O)c2ccccc2)cc1	inactive
O=C(CN(Cc1ccco1)C(=O)c1ccc(Cl)cc1)Nc1c(Cl)cc(Cl)cc1Cl	inactive
N#CCC(=O)Nc1ccc(C(=O)OCC(=O)Nc2ccc3ccccc3c2)cc1	inactive
O=C(O)CCn1cc(/C=C\C(=O)c2ccc(Cl)cc2)c(-c2cccc(Br)c2)n1	15.3% [at 30.8 µM] (inactive)
Cc1ccc(/C=C/C(=O)Nc2nnc(SCc3ccc(C#N)cc3)s2)o1	inactive
COc1ccccc1-c1nc2ccccc2n(CC(C)C)c1=O	inactive
COc1ccc(C(=O)c2ccc(Cl)cc2)c(OC)c1OC	6.99% [at 30.8 µM] (inactive)
CCCN(CC1CC1)c1cc2c(c3c1ccn3C)C1CCC2C1 (stereo unspecified)	inactive

====

system name: Rap guanine nucleotide exchange factor 3 (Homo sapiens)
method notes: Counterscreen qHTS for agonist of cAMP-regulated guanine nucleotide exchange factor 3 (EPAC1) (AID 1645889); note: % of control where 0% means no effect; nearly all actives have a fitted effect of over 40% in size
run parameters: EPAC1 Rap1B-BODIPY-GDP exchange, fluorescence; series mostly up to 154 µM
Inconclusive results are not listed. Calls of active or inactive are those of the source. Calls follow the shape of the dose curve; as a rule, active = well fitted activation curve with a large enough effect; inconclusive = small, poorly fitted or top-dose-only effect, or another doubt; inactive = no such curve, though single readings can be large or run the other way.

compound	activation
COc1ccc(CNC(=O)C(C#N)c2nc3ccccc3nc2N2CCCC2)cc1 (stereo unspecified)	inactive
C/C=C/c1cc(OC)c2c(c1)[C@H](C)[C@@H](c1ccc(O)c(OC)c1)O2	inactive
COc1ccc(O)c(/C=N/NC(=O)c2ccc(N3CCCC3=O)cc2)c1	inactive
CCOc1ccccc1Cn1c(=O)oc2ccc(C)cc21	inactive
CNC(=S)N1CCc2cc(OC)c(OC)cc2C1COc1ccc(F)cc1 (stereo unspecified)	46.8% [at 30.8 µM] (inactive)
Cc1cc2oc(=O)c(CC(=O)O)c(C)c2c2occ(-c3ccccc3)c12	inactive
O=C(c1ccccc1Br)N(Cc1ccco1)Cc1ccco1	inactive
COc1cc(/C=C(\C#N)c2nc3ccc(C)cc3[nH]2)ccc1OCc1ccc(C)cc1	inactive
O=C(N[C@H](Cc1ccc(Cl)cc1)C(=O)O)OCC1c2ccccc2-c2ccccc21	8.84% [at 30.8 µM] (inactive)
Cc1cccc(C(=O)c2c(N)sc3c2CCCC3)c1	9.69% [at 30.8 µM] (inactive)
Cn1/c(=N\NC(=O)C2CCCCC2)sc2ccccc21	inactive

====

system name: Rap guanine nucleotide exchange factor 3 (Homo sapiens) (UniProt O95398)
method notes: Confirmatory qHTS for antagonist of cAMP-regulated guanine nucleotide exchange factor 3 (EPAC1) (AID 1645880); note: nearly all actives have a fitted effect of over 55% in size
run parameters: EPAC1 Rap1B-BODIPY-GDP exchange, fluorescence
Records with an inconclusive call do not appear. Activity calls are given as the source filed them. The call rests on the fitted dose curve; in most records, active means well fitted inhibition curve with a large enough effect; inconclusive means small, poorly fitted or top-dose-only effect; inactive means no such curve, though single readings can be large or run the other way.
Possible outcomes: active, inactive

molecule	group label
N#Cc1c(C(F)(F)F)cc(-c2ccccc2)nc1SCc1nc(N)nc(N2CCOCC2)n1	inactive
Oc1ccc2ccc3cccc[n+]3c2c1	inactive
CC1CCCN(C(=O)c2cccc(S(=O)(=O)Nc3cc(C(F)(F)F)ccc3Cl)c2)C1 (configuration not stated)	active
CCCc1nn2c(=O)cc(COC(=O)c3ccc(NC(=O)COc4ccccc4F)cc3)nc2s1	inactive
COC(=O)c1ccc2nc(-c3ccc(Cl)cc3)c(CC3CCCCC3)n2c1	inactive
CSc1ccc(S(=O)(=O)NCC(=O)OCC(=O)N(C)Cc2ccccc2)cc1[N+](=O)[O-]	inactive
COc1ccccc1C(=O)Oc1ccc2c(c1)O/C(=C\c1ccncc1)C2=O	inactive
O=C(COc1ccc(Br)cc1Cl)c1ccc[nH]1	inactive
CCC(C)Cn1c(COc2ccc(OC)cc2)nc2ccccc21 (configuration not stated)	inactive
O=C(Nc1ccc2nc3n(c(=O)c2c1)CCCCC3)c1c(F)ccc([N+](=O)[O-])c1F	active
Cc1cc(C(=O)Nc2ccon2)c(C)o1	inactive
Cc1ccc(C)c(NC(=O)N2CCN3CCCCC3C2)c1 (configuration not stated)	inactive
O=C(COC(=O)COc1ccc(Cl)cc1Cl)NC1CCCC1	inactive
Cc1ccc(-c2cn3nc(-c4ccccc4)c(-c4ccccc4)nc3n2)cc1	inactive
CC(C)=CCc1c(O)cc2oc3c(CC=C(C)C)c(O)c(O)c(CC=C(C)C)c3c(=O)c2c1O	active
Cc1cc(C)nc(SCC(=O)c2ccc(Cl)cc2)n1	inactive
CCOC(=O)Nc1ccccc1C(=O)Nc1cc(C)cc(C)c1	inactive
COc1ccccc1C1CCN(c2ccc(CO)cc2[N+](=O)[O-])CC1	inactive
Cc1n[nH]c(C)c1N1C(=O)c2cccc3c(N4CCCCCC4)ccc(c23)C1=O	inactive
Cc1cccc(-n2c(N)c(-c3nc4ccccc4n3C)c3nc4ccccc4nc32)c1	inactive
Cc1nc2c(C(=O)NCCc3ccccc3)c[nH]n2c(=O)c1Cc1ccc(F)cc1Cl	active
O=C(NCCS(=O)(=O)N1CCc2ccccc2C1)c1ccccc1	inactive
